experimental system: T1, recombinant human ILT4 (LILRB2) (human, UniProt Q8N423 22-460)
T1 construct: Bought protein (Acro Biosystems or R&D Systems); also called ILTR4
T1 sequence (Q8N423 other isoform, or with tags, fused parts or gaps limits assumed): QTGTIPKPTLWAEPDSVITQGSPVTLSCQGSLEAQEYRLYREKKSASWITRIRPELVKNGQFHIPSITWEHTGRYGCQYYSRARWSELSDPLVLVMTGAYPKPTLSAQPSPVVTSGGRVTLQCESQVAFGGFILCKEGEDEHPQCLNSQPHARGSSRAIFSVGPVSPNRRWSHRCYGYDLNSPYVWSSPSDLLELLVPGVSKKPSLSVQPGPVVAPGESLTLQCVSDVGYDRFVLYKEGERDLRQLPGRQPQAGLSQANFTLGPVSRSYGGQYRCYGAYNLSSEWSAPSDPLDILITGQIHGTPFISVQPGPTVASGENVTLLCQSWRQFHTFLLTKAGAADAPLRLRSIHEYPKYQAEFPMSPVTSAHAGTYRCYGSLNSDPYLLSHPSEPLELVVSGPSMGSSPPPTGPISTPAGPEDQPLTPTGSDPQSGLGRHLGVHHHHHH
test name: SPR, Biacore T200, mAb captured on anti-Fc, ILT4 injected, medium resolution, 25 C
Please mark true if the recorded kon is equal to or greater than 500000 M⁻¹ s⁻¹, and false if it falls below.

Worked examples follow.
{"binder": "Hz180-LALA (antibody, human IgG1, kappa, L234A L235A, V domains shown, Humanized L180S4, human IgG1 L234A/L235A, kappa; also called Humanized 180_04; Hz 180 04) VH: QVQLVQSGAEVKKPGSSVKVSCKASGYSFIGYFMNWMRQAPGQGLEWIGRINPYNGDIFYNQKFKGRVTITVDKSTSTAYMELSSLRSEDTAVYYCARGITVAAGSFDVWGQGTTVTVSS VL: DIVMTQSPDSLAVSLGERATINCRASESVDNYGNTFMHWYQQKPGQPPKLLIYRASNLESGIPDRFSGSGSGTDFTLTISSLQAEDVAVYYCQQSSDHPLTFGGGTKVEIKR", "classification": "true"}
{"binder": "Chimeric 180 (antibody, V domains shown, Chimeric form of L180S4) VH: EVHLQQSGPELVKPGASVKISCKASGYSFIGYFMNWMKQSHGKSLEWIGRINPYNGDIFYNQKFKGKATLTVDKSSTTAHMDLLSLTSEDFAVYYCARGITVAAGSFDVWGTGTTVTVSS VL: DIVLTQSPASLAVSLGQRATISCRASESVDNYGNTFMHWYQQKPGQPPKLLIYRASNLESGIPARFSGSGSKTDFTLTINPVEADDVATYYCQQSSDHPLTFGAGTKLELS", "classification": "true"}
{"binder": "L77S2 (antibody, IgG1, V domains shown, also called Murine 77; mouse anti-human ILT4 antibody L77S2) VH: DVQLQQSGPELVKPGNSVKISCKAAGYSFTGYSVNWVKERHGKSLEWIGRINPYNGDIFNNQKFKGKATLTVDKSSSTAHMELRSLTSEDSAVYYCARGTTVGGAWFAYWGQGTLVTVSA VL: VIVLTQSPASLAVSLGQRAAISCRASESVDSYGYSFLHWYQQKPGQPPKLLIYLASNLESGIPARFSGSGSGTDFTLTINPVEADDVATYYCQQSNEDLMYTFGGGTKLEIK", "classification": "false"}

Let's switch to this binder now.
Check the entry Hz45.01-LALA (antibody, human IgG1, kappa, L234A L235A, V domains shown, Humanized L45S4, human IgG1 L234A/L235A, kappa; also called Humanized 45_01; Hu IgG 45_01 LALA) VH: QVQLVQSGAEVKKPGASVKVSCKASGYTFTDYYMNWVRQAPGQRLEWIGDINPNNGGTSYNQKFKGRATITVDTSASTAYMELSSLRSEDTAVYYCARGGAELTGTYWYFDVWGQGTTVTVSS VL: DIQMTQSPSSLSASVGDRVTITCRASENIYSNLAWYQQKPGKAPKVLVYGATNLADGVPSRFSGSGSGTEYTLTISSLQPEDFATYYCQHFWDSPFTFGGGTKVEIKR : does kon equal or exceed 500000 M⁻¹ s⁻¹?
false
